- SUBJECT_OF_TEST: Human CD4 on CD4+CD25+ regulatory T cells of healthy donors (human, UniProt P01730 26-458)
- PROTOCOL_TEXT: cell-based or functional assay
EXPERIMENTAL_READOUT: % Inh1 (%)
Just the number in %, nothing appended.

Exam item: Bench note: what % Inh1 did BT61 Lot 52690 (antibody, human IgG1, kappa, V domains shown) VH: EEQLVESGGGLVKPGGSLRLSCAASGFSFSDCRMYWLRQAPGKGLEWIGVISVKSENYGANYAESVRGRFTISRDDSKNTVYLQMNSLKTEDTAVYYCSASYYRYDVGAWFAYWGQGTLVTVSS VL: DIVMTQSPDSLAVSLGERATINCRASKSVSTSGYSYIYWYQQKPGQPPKLLIYLASILESGVPDRFSGSGSGTDFTLTISSLQAEDVAVYYCQHSRELPWTFGQGTKVEIKR show?
Marked response: 26.7

Exam item: Bench note: what % Inh1 did HC master LC L98I (antibody, V domains shown) VH: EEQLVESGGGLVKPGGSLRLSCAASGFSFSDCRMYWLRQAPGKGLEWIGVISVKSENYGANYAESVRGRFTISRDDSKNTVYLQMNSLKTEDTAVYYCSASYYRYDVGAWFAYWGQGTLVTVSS VL: DIVMTQSPDSLAVSLGERATINCRASKSVSTSGYSYIYWYQQKPGQPPKLLIYLASILESGVPDRFSGSGSGTDFTLTISSLQAEDVAVYYCQHSREIPWTFGQGTKVEIKR show?
Marked response: 12.2

Exam item: Bench note: what % Inh1 did LC master HC Y105W (antibody, V domains shown) VH: EEQLVESGGGLVKPGGSLRLSCAASGFSFSDCRMYWLRQAPGKGLEWIGVISVKSENYGANYAESVRGRFTISRDDSKNTVYLQMNSLKTEDTAVYYCSASYYRWDVGAWFAYWGQGTLVTVSS VL: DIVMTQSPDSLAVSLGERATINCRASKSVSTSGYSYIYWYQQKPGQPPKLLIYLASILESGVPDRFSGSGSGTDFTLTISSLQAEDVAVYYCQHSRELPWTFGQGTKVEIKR show?
Marked response: 5.3

Exam item: Bench note: what % Inh1 did LC master HC R33K-A63G (antibody, V domains shown) VH: EEQLVESGGGLVKPGGSLRLSCAASGFSFSDCKMYWLRQAPGKGLEWIGVISVKSENYGANYGESVRGRFTISRDDSKNTVYLQMNSLKTEDTAVYYCSASYYRYDVGAWFAYWGQGTLVTVSS VL: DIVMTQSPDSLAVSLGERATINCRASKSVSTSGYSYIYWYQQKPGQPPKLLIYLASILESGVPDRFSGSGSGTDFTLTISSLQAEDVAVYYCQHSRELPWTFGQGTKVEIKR show?
Marked response: 15.7

Exam item: Bench note: what % Inh1 did LC G33A HC R33K (antibody, V domains shown) VH: EEQLVESGGGLVKPGGSLRLSCAASGFSFSDCKMYWLRQAPGKGLEWIGVISVKSENYGANYAESVRGRFTISRDDSKNTVYLQMNSLKTEDTAVYYCSASYYRYDVGAWFAYWGQGTLVTVSS VL: DIVMTQSPDSLAVSLGERATINCRASKSVSTSAYSYIYWYQQKPGQPPKLLIYLASILESGVPDRFSGSGSGTDFTLTISSLQAEDVAVYYCQHSRELPWTFGQGTKVEIKR show?
Marked response: 6.5

Exam item: Bench note: what % Inh1 did LC L98I HC R33K (antibody, V domains shown) VH: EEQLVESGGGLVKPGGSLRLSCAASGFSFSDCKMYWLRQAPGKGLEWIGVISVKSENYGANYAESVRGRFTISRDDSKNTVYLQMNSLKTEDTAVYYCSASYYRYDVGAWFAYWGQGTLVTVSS VL: DIVMTQSPDSLAVSLGERATINCRASKSVSTSGYSYIYWYQQKPGQPPKLLIYLASILESGVPDRFSGSGSGTDFTLTISSLQAEDVAVYYCQHSREIPWTFGQGTKVEIKR show?
Marked response: 9.2
